- PROTOCOL_NOTES: Drug concentration in sc dosed C57BL/6 mouse liver measured after 15 mins by LC-FTICR-MS analysis
- Assay type: ADME, organism-based
- EXPERIMENTAL_SETUP: read-out: Ct
PROPERTY_LABEL: concentration at 0.25 h
Output should be the measured figure followed by the unit it is expressed in.

response.value for `C[C@@H]1CN(C(=O)[C@H](C)N2CCC(n3c(=O)[nH]c4ccccc43)CC2)C[C@@H](C)N1` (field: concentration at 0.25 h) = 4550 ng/g

* * *

PROPERTY_LABEL: IC50

Entry `C[C@@H]1CN(C(=O)[C@H](C)N2CCC(n3c(=O)[nH]c4ccccc43)CC2)C[C@@H](C)N1` ; assay system Cytochrome P450 2C19 (Homo sapiens); IC50 recorded at > 10 µM
